These entries and their values trace back to patent US11053234B2.

Biological target: haematopoietic prostaglandin D synthase (H-PGDS) (Homo sapiens, UniProt O60760)
Construct: Full length human H-PGDS cDNA (Invitrogen Ultimate ORF 10H13026) was amplified by PCR; 6-His (N); TEV protease cleavage site (N); made in house; host or cells: E. coli BL21 (DE3*), vector pET22b+
Sequence (O60760 whole entry): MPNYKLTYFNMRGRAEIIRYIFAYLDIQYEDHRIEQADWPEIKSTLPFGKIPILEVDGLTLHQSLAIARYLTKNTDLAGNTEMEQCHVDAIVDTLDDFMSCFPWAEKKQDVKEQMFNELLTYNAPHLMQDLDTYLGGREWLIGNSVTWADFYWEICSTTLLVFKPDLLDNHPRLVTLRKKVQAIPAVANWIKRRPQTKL
Experiment: H-PGDS RapidFire high throughput mass spectrometry assay (conversion of PGH2 to PGD2)
Format: biochemical
Conditions: 10 nM H-PGDS, PGH2 formed in situ by COX-2 from arachidonic acid; read-out: Potency Range (mean pIC50) (converted)
OUTCOME MEASURE: IC50

1. COc1ccc(F)cc1O[C@H]1C[C@H](C(=O)NC2CCN(c3nnnn3C)CC2)C1    10 to 79.4 nM

Which value of IC50 has been reported for `COc1ccc(F)cc1O[C@H]1C[C@H](C(=O)NN2CCc3ccccc32)C1` in the records?
10 to 79.4 nM

====

Listed below: IC50 values for each entry.
Target: haematopoietic prostaglandin D synthase (H-PGDS) (Homo sapiens)
Construct: Full length human H-PGDS cDNA (Invitrogen Ultimate ORF 10H13026) was amplified by PCR; 6-His (N); TEV protease cleavage site (N); made in house; host or cells: E. coli BL21 (DE3*), vector pET22b+
Assay: H-PGDS RapidFire high throughput mass spectrometry assay (conversion of PGH2 to PGD2)
Assay type: biochemical
Settings: 10 nM H-PGDS, PGH2 formed in situ by COX-2 from arachidonic acid; read-out: Potency Range (mean pIC50) (converted)
Description: H-PGDS RapidFire™ High Throughput Mass Spectrometry Assay The H-PGDS RapidFire™ mass spectrometric assay monitors conversion of prostaglandin H2 (PGH2) to prostaglandin D2 (PGD2) by haematopoietic prostaglandin D synthase (H-PGDS). […] Plates are then read on the RapidFire™ high throughput solid phase extraction system (Agilent) which incorporates a solid phase extraction step coupled to a triple quadrupole mass spectrometer (AB SCIEX). […]

1) O=C(NC1CCN(CC(F)(F)F)CC1)N1CC(Oc2cccc3scnc23)C1    10 to 79.4 nM
2) CC(C)(O)[C@H]1CC[C@H](NC(=O)[C@H]2C[C@H](Oc3cc(F)ccc3Cl)C2)CC1    100 to 1000 nM
3) O=C(NC1CN(c2cnccn2)C1)[C@H]1C[C@H](Oc2cccc3scnc23)C1    10 to 79.4 nM

Which value of IC50 has been reported for `O=C(NC1CN(c2ccnc(Cl)n2)C1)N1CC(Oc2cccc3scnc23)C1` in the records?
10 to 79.4 nM

====

Listed below: IC50 values for each entry.
Target: haematopoietic prostaglandin D synthase (H-PGDS) (Homo sapiens, UniProt O60760)
Construct: Full length human H-PGDS cDNA (Invitrogen Ultimate ORF 10H13026) was amplified by PCR; 6-His (N); TEV protease cleavage site (N); made in house; host or cells: E. coli BL21 (DE3*), vector pET22b+
Experiment: H-PGDS RapidFire high throughput mass spectrometry assay (conversion of PGH2 to PGD2)
Type: biochemical
Details: 10 nM H-PGDS, PGH2 formed in situ by COX-2 from arachidonic acid; read-out: Potency Range (mean pIC50) (converted)

Past entries and their recorded results:
1) O=C(Nc1nnc(C2CC2)s1)N1CC(Oc2cccc3scnc23)C1 [Example 333]    < 10 nM
2) CCOCCNC(=O)c1ccc(N2CC(NC(=O)[C@H]3C[C@H](Oc4cc(F)cc5scnc45)C3)C2)nn1 [Example 234]    10 to 79.4 nM
3) Cc1ccc(N2CC(NC(=O)N3CC(Oc4cccc5scnc45)C3)C2)nc1 [Example 244]    10 to 79.4 nM

Which value of IC50 has been reported for O=C(Nc1ccnc(C2CC2)n1)N1CC(Oc2cccc3scnc23)C1 [Example 312] in the records?
10 to 79.4 nM

Which value of IC50 has been reported for CC(C)(O)[C@@H]1CC[C@@H](NC(=O)N2CC(Oc3cccc4scnc34)C2)CO1 (racemic) [Example 104] in the records?
10 to 79.4 nM

Which value of IC50 has been reported for COCCO[C@H]1CC[C@H](NC(=O)[C@H]2C[C@H](Oc3cc(F)cc4scnc34)C2)CC1 [Example 115] in the records?
100 to 1000 nM

Which value of IC50 has been reported for CC(C)(O)[C@H]1CC[C@H](NC(=O)N2CC(Oc3cccc4sncc34)C2)CC1 [Example 299] in the records?
100 to 1000 nM

====

Biological target: haematopoietic prostaglandin D synthase (H-PGDS) (Homo sapiens)
Construct: Full length human H-PGDS cDNA (Invitrogen Ultimate ORF 10H13026) was amplified by PCR; 6-His (N); TEV protease cleavage site (N); made in house; host or cells: E. coli BL21 (DE3*), vector pET22b+
Assay: H-PGDS RapidFire high throughput mass spectrometry assay (conversion of PGH2 to PGD2)
Assay type: biochemical
Details: 10 nM H-PGDS, PGH2 formed in situ by COX-2 from arachidonic acid; read-out: Potency Range (mean pIC50) (converted)
OUTCOME MEASURE: IC50

Past entries and their recorded results:
1) CC(=O)c1coc(N2CC(NC(=O)[C@H]3C[C@H](Oc4cccc5scnc45)C3)C2)n1    0.1 to 1 µM
2) O=C(NC1CN(c2ncc(F)cn2)C1)N1CC(Oc2cc(F)cc3scnc23)C1    0.01 to 0.0794 µM
3) CCOC(=O)c1csc(NC(=O)[C@H]2C[C@H](Oc3cc(F)ccc3OC(F)F)C2)n1    < 0.01 µM

Which value of IC50 has been reported for `O=C(NC1CN(c2ccccn2)C1)[C@H]1C[C@H](Oc2cccc3scnc23)C1` in the records?
0.01 to 0.0794 µM

Which value of IC50 has been reported for `COc1ccc(F)cc1O[C@H]1C[C@H](C(=O)Nc2nc(C3CC3)cs2)C1` in the records?
< 0.01 µM

Which value of IC50 has been reported for `CC(C)(O)[C@H]1CC[C@H](NC(=O)[C@H]2C[C@H](Oc3cccc4c3OCC4)C2)CC1` in the records?
0.01 to 0.0794 µM

Which value of IC50 has been reported for COC(=O)N1CCCC(NC(=O)N2CC(Oc3cccc4scnc34)C2)C1 (racemic) in the records?
0.1 to 1 µM

Which value of IC50 has been reported for `Cc1cnc(NC(=O)[C@H]2C[C@H](Oc3cccc4cccnc34)C2)s1` in the records?
0.01 to 0.0794 µM

Which value of IC50 has been reported for `CS(=O)(=O)c1ccc(NC(=O)N2CC(Oc3cccc4scnc34)C2)cc1` in the records?
0.01 to 0.0794 µM

====

Listed below: IC50 values for each entry.
Biological target: haematopoietic prostaglandin D synthase (H-PGDS) (Homo sapiens)
Construct: Full length human H-PGDS cDNA (Invitrogen Ultimate ORF 10H13026) was amplified by PCR; 6-His (N); TEV protease cleavage site (N); made in house; host or cells: E. coli BL21 (DE3*), vector pET22b+
Experiment: H-PGDS RapidFire high throughput mass spectrometry assay (conversion of PGH2 to PGD2)
Type: biochemical
Details: 10 nM H-PGDS, PGH2 formed in situ by COX-2 from arachidonic acid; read-out: Potency Range (mean pIC50) (converted)

1. O=C(Nc1nccs1)[C@H]1C[C@H](Oc2cccc3cc(F)cnc23)C1 [Example 281]    10 to 79.4 nM
2. O=C(N[C@H]1CC[C@H](C(O)C2CC2)CC1)[C@H]1C[C@H](Oc2cc(F)ccc2OC(F)F)C1 (mixture of isomers) [Example 27]    10 to 79.4 nM
3. O=C(NC1CN(c2ncccn2)C1)N1CC(Oc2cccc3scnc23)C1 [Example 107]    10 to 79.4 nM

Now look at this one.
Which value of IC50 has been reported for O=C(Nc1nc(C2CC2)cs1)[C@H]1C[C@H](Oc2cccc3scnc23)C1 [Example 138] in the records?
< 10 nM

====

Biological target: haematopoietic prostaglandin D synthase (H-PGDS) (Homo sapiens)
Construct: Full length human H-PGDS cDNA (Invitrogen Ultimate ORF 10H13026) was amplified by PCR; 6-His (N); TEV protease cleavage site (N); made in house; host or cells: E. coli BL21 (DE3*), vector pET22b+
Test: H-PGDS RapidFire high throughput mass spectrometry assay (conversion of PGH2 to PGD2)
Type: biochemical
Conditions: 10 nM H-PGDS, PGH2 formed in situ by COX-2 from arachidonic acid; read-out: Potency Range (mean pIC50) (converted)
Counter-ions that a name gives are not always drawn.
OUTCOME MEASURE: IC50

Past entries and their recorded results:
1) O=C(NC1CN(CC(F)F)C1)[C@H]1C[C@H](Oc2cc(F)ccc2OC(F)F)C1    100 to 1000 nM
2) O=C(Nc1nccs1)[C@H]1C[C@H](Oc2cccc3[nH]cnc23)C1 [Example 297, di-trifluoroacetic acid salt]    100 to 1000 nM
3) O=C(NC1CCN(c2ncc(F)cn2)CC1)[C@H]1C[C@H](Oc2cccc3scnc23)C1    10 to 79.4 nM
4) O=C(NC1CN(c2cnccn2)C1)[C@H]1C[C@H](Oc2cc(F)cc3scnc23)C1    10 to 79.4 nM
5) CC(C)(O)[C@H]1CC[C@H](NC(=O)[C@H]2C[C@H](Oc3cc(Cl)ccc3Cl)C2)CC1    100 to 1000 nM
6) O=C(c1csc(NC(=O)[C@H]2C[C@H](Oc3cccc4cccnc34)C2)n1)C1CC1    10 to 79.4 nM

Now look at this one.
Which value of IC50 has been reported for `O=C(NC1CCCCC1)N1CC(Oc2cccc3scnc23)C1` in the records?
100 to 1000 nM
